Sourced from patent US10011573B2

# TARGET OR TEST SYSTEM: androgen receptor (AR) (Homo sapiens, UniProt P10275, T878A)
# Sequence (P10275 1-920 T878A): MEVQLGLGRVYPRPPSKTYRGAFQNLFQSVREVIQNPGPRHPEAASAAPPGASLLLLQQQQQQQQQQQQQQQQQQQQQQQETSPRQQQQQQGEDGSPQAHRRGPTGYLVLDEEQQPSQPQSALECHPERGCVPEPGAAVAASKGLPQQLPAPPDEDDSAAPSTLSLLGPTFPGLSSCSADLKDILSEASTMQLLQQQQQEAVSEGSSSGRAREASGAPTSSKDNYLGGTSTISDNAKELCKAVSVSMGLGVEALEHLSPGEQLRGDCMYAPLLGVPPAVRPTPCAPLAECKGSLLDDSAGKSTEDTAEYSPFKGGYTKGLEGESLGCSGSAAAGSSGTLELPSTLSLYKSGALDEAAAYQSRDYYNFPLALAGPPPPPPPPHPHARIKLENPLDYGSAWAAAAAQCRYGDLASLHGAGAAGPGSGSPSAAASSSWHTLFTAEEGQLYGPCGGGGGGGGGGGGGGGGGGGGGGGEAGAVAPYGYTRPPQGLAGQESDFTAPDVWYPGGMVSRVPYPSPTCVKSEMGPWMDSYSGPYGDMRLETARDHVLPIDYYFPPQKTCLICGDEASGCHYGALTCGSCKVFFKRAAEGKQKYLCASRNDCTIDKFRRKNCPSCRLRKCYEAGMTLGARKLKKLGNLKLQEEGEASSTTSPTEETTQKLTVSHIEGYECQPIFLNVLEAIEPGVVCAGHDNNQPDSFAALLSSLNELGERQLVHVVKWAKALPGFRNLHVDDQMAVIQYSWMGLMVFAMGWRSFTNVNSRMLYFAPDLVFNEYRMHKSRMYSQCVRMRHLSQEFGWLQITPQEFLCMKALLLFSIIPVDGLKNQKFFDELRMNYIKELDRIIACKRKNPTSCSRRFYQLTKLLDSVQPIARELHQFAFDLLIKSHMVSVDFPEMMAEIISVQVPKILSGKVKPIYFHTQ
# PROTOCOL DESCRIPTION: eGFP cellular AR transcription assay (LNCaP eGFP cells, LN-ARR2PB-eGFP)
OBSERVED PROPERTY: % Inhibition (3 μM) (%)
Give the quantity in %, number only.

Please review the entries below; each comes with its answer.
>>> readout_number("NC(=O)N1CCN(c2nc(-c3ccccc3)cs2)CC1")
15.82
>>> readout_number("Oc1ccc(-c2csc(N3CCOCC3)n2)cc1O")
19.95
>>> readout_number("Cc1sccc1-c1csc(N2CCOCC2)n1")
38.00
>>> readout_number("c1ccc2oc(-c3csc(N4CCOCC4)n3)cc2c1")
40.98

Request: Query the reported % Inhibition (3 μM) for androgen receptor (AR) (Homo sapiens, UniProt P10275, T878A); item: "Oc1cc(F)ccc1-c1csc(N2CCOCC2)n1"
Result: 91.26

---

# TARGET OR TEST SYSTEM: androgen receptor (AR) (Homo sapiens, UniProt P10275, T878A)
# Sequence (P10275 1-920 T878A): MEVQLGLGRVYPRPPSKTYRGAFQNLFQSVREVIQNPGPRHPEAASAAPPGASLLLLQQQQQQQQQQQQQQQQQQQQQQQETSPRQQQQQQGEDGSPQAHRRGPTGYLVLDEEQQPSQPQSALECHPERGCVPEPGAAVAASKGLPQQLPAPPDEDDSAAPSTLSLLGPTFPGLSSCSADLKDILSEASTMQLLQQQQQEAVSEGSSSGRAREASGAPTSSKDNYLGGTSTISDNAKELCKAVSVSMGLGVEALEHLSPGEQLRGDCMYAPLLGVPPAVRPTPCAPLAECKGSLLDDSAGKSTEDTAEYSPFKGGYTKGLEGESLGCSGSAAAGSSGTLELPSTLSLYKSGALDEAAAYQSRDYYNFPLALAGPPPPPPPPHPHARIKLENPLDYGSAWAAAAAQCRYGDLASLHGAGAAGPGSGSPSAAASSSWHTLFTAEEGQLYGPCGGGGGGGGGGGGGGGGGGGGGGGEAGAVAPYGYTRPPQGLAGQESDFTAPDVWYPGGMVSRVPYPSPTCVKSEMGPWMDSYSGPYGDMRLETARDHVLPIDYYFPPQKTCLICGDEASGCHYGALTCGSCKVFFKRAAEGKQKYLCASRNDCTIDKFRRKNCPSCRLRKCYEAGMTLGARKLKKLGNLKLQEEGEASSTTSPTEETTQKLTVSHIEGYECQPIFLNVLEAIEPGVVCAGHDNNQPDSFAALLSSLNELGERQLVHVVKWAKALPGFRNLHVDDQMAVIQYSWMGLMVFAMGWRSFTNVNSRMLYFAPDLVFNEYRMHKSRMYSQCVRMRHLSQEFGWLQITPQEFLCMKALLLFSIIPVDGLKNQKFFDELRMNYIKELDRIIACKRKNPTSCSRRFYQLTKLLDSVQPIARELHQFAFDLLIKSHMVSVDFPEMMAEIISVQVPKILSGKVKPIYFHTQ
# PROTOCOL DESCRIPTION: eGFP cellular AR transcription assay (LNCaP eGFP cells, LN-ARR2PB-eGFP)
# EXPERIMENTAL SETUP: eGFP IC50, LNCaP eGFP cells, 0.1 nM R1881
OBSERVED PROPERTY: IC50 (µM)
Give the quantity in µM, number only.

Please review the entries below; each comes with its answer.
>>> readout_number("Brc1ncn(-c2csc(N3CCOCC3)n2)c1Br [Compound 14449]")
0.12
>>> readout_number("c1cncc(-c2csc(N3CCOCC3)n2)c1 [Compound 14439]")
0.16
>>> readout_number("c1ccc(-c2csc(N3CCOCC3)n2)nc1 [Compound 14436]")
4.53
>>> readout_number("c1cc(-c2csc(N3CCOCC3)n2)ccn1 [Compound 14435]")
3.87
>>> readout_number("COc1c(F)cccc1-c1csc(N2CCOCC2)n1 [Compound 14368]")
0.035
>>> readout_number("c1cc(-c2csc(N3CCOCC3)n2)cs1 [Compound 14404]")
0.27

As a next step, examine the compound that follows.
Request: Query the reported IC50 for androgen receptor (AR) (Homo sapiens, UniProt P10275, T878A); item: c1ccc(-c2csc(N3CCOCC3)n2)cc1 [Compound 14228, 4-(4-phenylthiazol-2-yl)morpholine]
Result: 0.274

---

# System: PSA
# PROTOCOL DESCRIPTION: Prostate-specific antigen (PSA) assay, secreted PSA from the eGFP assay plates
# Assay type: cell-based, human
# EXPERIMENTAL SETUP: Series 1
Entries and their pIC50
# pIC50 is unitless: minus log10 of the molar concentration; print number only

Please review the entries below; each comes with its answer.
>>> readout_number("Oc1cc(F)ccc1-c1csc(N2CCOCC2)n1")
6.09
>>> readout_number("CCc1sc(N2CCOCC2)nc1-c1ccccc1")
5.07
>>> readout_number("c1ccc(-c2csc(-c3ccncc3)n2)cc1")
6.20
>>> readout_number("c1ccc(-c2csc(-c3ccccn3)n2)cc1")
5.07

As a next step, examine the compound that follows.
Request: So what does the record say about pIC50 for "O=C(O)c1sc(N2CCOCC2)nc1-c1ccccc1" ?
Result: 5.35

---

# TARGET OR TEST SYSTEM: androgen receptor (AR) (Homo sapiens, UniProt P10275, T878A)
# Sequence (P10275 1-920 T878A): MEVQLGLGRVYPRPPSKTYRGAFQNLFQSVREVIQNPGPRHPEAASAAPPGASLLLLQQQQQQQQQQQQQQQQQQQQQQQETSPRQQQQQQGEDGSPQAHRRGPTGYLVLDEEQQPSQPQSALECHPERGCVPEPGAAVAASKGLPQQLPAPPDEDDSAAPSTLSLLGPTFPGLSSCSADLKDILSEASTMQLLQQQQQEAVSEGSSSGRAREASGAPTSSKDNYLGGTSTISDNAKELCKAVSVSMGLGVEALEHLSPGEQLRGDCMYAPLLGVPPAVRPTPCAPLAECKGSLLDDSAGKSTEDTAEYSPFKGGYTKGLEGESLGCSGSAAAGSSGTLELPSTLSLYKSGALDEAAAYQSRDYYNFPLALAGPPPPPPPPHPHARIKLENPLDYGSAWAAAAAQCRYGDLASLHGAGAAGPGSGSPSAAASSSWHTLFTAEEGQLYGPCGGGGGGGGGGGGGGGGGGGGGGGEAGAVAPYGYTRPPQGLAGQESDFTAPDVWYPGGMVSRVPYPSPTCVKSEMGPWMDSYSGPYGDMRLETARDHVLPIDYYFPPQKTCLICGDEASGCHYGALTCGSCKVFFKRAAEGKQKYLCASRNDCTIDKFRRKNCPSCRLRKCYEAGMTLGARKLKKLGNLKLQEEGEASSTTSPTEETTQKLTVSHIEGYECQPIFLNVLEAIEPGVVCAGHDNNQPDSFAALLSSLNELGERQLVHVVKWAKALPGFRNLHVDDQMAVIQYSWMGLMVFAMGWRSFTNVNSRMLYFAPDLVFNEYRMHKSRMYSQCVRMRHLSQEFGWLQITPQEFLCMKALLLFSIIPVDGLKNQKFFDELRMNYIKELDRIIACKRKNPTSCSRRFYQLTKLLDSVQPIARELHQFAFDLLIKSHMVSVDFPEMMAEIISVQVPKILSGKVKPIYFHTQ
# PROTOCOL DESCRIPTION: eGFP cellular AR transcription assay (LNCaP eGFP cells, LN-ARR2PB-eGFP)
# EXPERIMENTAL SETUP: eGFP IC50 (μM), LNCaP eGFP cells
OBSERVED PROPERTY: IC50 (µM)
Give the quantity in µM, number only.

>>> readout_number("c1ccc2nc(N3CCOCC3)ccc2c1 [Compound 14401]")
0.85

Request: So what does the record say about IC50 for COc1cc(C)c2occ(/C(C)=N/O)c2c1 [Compound 14017] ?
Result: 41.6

Request: So what does the record say about IC50 for Cc1ccccc1CN1C(=O)NC2C=CC=CC21 (centres unmarked) [Compound 14065] ?
Result: 10

Request: So what does the record say about IC50 for Oc1ccc(-c2ccc3ccccc3n2)cc1 [Compound 14440] ?
Result: 9.48

Request: So what does the record say about IC50 for NC(=S)N/N=C/c1cccc2ccccc12 [Compound 14164] ?
Result: 3.04

Request: So what does the record say about IC50 for Oc1ccc2nc(N3CCOCC3)sc2c1 [Compound 14378] ?
Result: 7.41
